# Experiment Summary: log P by HPLC on reversed-phase (C18) columns, OECD Guideline 117
# Format: physicochemical
# Condition Description: reversed-phase (C18) HPLC column; acidic range, pH 2.7, 0.1% aqueous formic acid and acetonitrile as eluents; read-out: logP [a]

| Molecule | chromatographic logP |
| --- | --- |
| CN(C(=O)C1CCS(=O)(=O)C1)c1cc2sc(-c3cccnc3)nc2cn1 (stereo not drawn) [Example 10] | 1.37 |
| O=C(Nc1cccc([S+]([O-])C(F)(F)F)c1)c1cc2sc(-c3cccnc3)nc2cn1 (stereo not drawn) [Example 14] | 2.99 |
| Cc1ccc(-c2cc3sc(-c4cccnc4)nc3cn2)cc1[S+]([O-])CC(F)(F)F (stereo not drawn) [Example 5] | 2.79 |
| CN(C(=O)c1cccc(S(=O)(=O)C(F)(F)F)c1)c1cc2sc(-c3cccnc3)nc2cn1 [Example 18] | 1.54 |
| CS(=O)(=O)CCC(=O)Nc1cc2sc(-c3cccnc3)nc2cn1 [Example 29] | 1.17 |
| CN(C(=O)c1cccc([S+]([O-])C(F)(F)F)c1)c1cc2sc(-c3cccnc3)nc2cn1 (stereo not drawn) [Example 22] | 2.21 |
| Clc1cc2sc(-c3cccnc3)nc2cn1 [Example 24] | 1.89 |
| O=C(Nc1cc2sc(-c3cccnc3)nc2cn1)c1cccc([S+]([O-])C(F)(F)F)c1 (stereo not drawn) [Example 28] | 2.61 |
| c1cncc(-c2nc3cnc(N4CCOCC4)cc3s2)c1 [Example 4] | 1.73 |
| CN(C(=O)c1cccc(SC(F)(F)F)c1)c1cc2sc(-c3cccnc3)nc2cn1 [Example 7] | 3.3 |
| Cc1cc(F)c(-c2cc3sc(-c4cccnc4)nc3cn2)cc1[S+]([O-])CC(F)(F)F (stereo not drawn) [Example 2] | 2.8 |
| c1ccc(-c2cc3sc(-c4cccnc4)nc3cn2)nc1 [Example 6] | 1.68 |
| c1cncc(-c2nc3cnc(N4CCCC4)cc3s2)c1 [Example 27] | 1.38 |
| O=C(Nc1cccc(SC(F)(F)F)c1)c1cc2sc(-c3cccnc3)nc2cn1 [Example 11] | 4.33 |
| FC(F)(F)c1cc2sc(-c3cccnc3)nc2cn1 [Example 3] | 2.32 |
| Cc1cc(F)c(-c2cc3sc(-c4cccnc4)nc3cn2)cc1SCC(F)(F)F [Example 1] | 4.45 |
| Cc1ccc(-c2cc3sc(-c4cccnc4)nc3cn2)cc1SCC(F)(F)F [Example 25] | 4.32 |
| CN(C(=O)CCS(C)(=O)=O)c1cc2sc(-c3cccnc3)nc2cn1 [Example 17] | 1.25 |

// data source = patent US20180282347A1
